Where these numbers come from: patent US10570168B2

# Tested on: HL-60
# Measurement protocol: Solid tumour and haematological malignancy assay (CellTiterGlo)
# Assay type: cell-based
# Experimental context: Homo sapiens, HL-60, 72 h, read-out: EC50 (absolute EC50)
Quantity: EC50

Tell me measured EC50 for CC(NP(=O)(OC[C@@H]1C[C@@H](O)[C@H](n2cnc3c(N)nc(Cl)nc32)O1)Oc1cccc2ccccc12)C(=O)OCc1ccccc1 (stereo in doubt) [S] please.
5 to 15 µM

* * *

# System: RPMI-8226
# Measurement protocol: Solid tumour and haematological malignancy assay (CellTiterGlo)
# Type: cell-based
# Experimental context: Homo sapiens, RPMI-8226, 72 h, read-out: IC50 (absolute IC50)
Quantity: IC50

Look up and state reported IC50 for C[C@H](NP(=O)(OC[C@@H]1CC(O)[C@H](n2cnc3c(N)ncnc32)O1)Oc1ccccc1)C(=O)OCc1ccccc1 (some centres unmarked)
5 to 15 µM

For COC(=O)C(C)(C)NP(=O)(OC[C@@H]1C[C@@H](O)[C@H](n2cnc3c(N)ncnc32)O1)Oc1cccc2ccccc12 (some centres unmarked) , write its IC50.
15 to 100 µM

Provide one value: measured IC50 of CCOC(=O)CCc1ccccc1OP(=O)(N[C@@H](C)C(=O)OCc1ccccc1)OC[C@@H]1C[C@@H](O)[C@H](n2cnc3c(N)ncnc32)O1 (some centres unmarked)
15 to 100 µM

Look up and report measured IC50 for this entry: C[C@H](NP(=O)(OC[C@@H]1C[C@@H](O)[C@H](n2cnc3c(N)ncnc32)O1)Oc1cccc2ccccc12)C(=O)OCc1ccccc1 (some centres unmarked)
5 to 15 µM

Tell me its IC50 given Nc1ncnc2c1ncn2[C@@H]1O[C@H](COP(=O)(NCC(=O)OCc2ccccc2)Oc2ccccc2)C[C@H]1O (some centres unmarked) as the entry.
15 to 100 µM

* * *

# System: CCRF-CEM (TdT positive CEM)
# Measurement protocol: ATP (ViaLight plus) cytotoxicity assay
# Format: cell-based, Human
# Experimental context: Homo sapiens, CCRF-CEM, CEM, with NBTI 10 μM (nucleoside transporter blocker); read-out: IC50
Quantity: IC50 (µM)
Write the value in µM as a bare number.

Output measured IC50 for this item: Nc1ncnc2c1ncn2[C@@H]1O[C@H](CO)C[C@H]1O [Cordycepin, 3′-deoxyadenosine, reference compound]
57.7

* * *

# Tested on: SW620
# Measurement protocol: Solid tumour and haematological malignancy assay (CellTiterGlo)
# Format: cell-based
# Experimental context: Homo sapiens, SW-620, 72 h, read-out: IC50 (absolute IC50)
pIC50: −log10 of the molar value.
I'd appreciate it if you could supply pIC50 values for the items below.

Entry C[C@H](NP(=O)(OC[C@@H]1CC(O)[C@H](n2cnc3c(N)ncnc32)O1)Oc1ccccc1)C(=O)OCc1ccccc1 (some centres unmarked) needs its pIC50 filled in; supply it.
4.00 to 4.82

# return recorded pIC50 for entry C[C@H](NP(=O)(OC[C@@H]1C[C@@H](O)[C@H](n2cnc3c(N)ncnc32)O1)Oc1cccc2ccccc12)C(=O)OCc1ccccc1 (some centres unmarked)
4.82 to 5.30

Quickly give me recorded pIC50 for CCOC(=O)CCc1ccccc1OP(=O)(N[C@@H](C)C(=O)OCc1ccccc1)OC[C@@H]1C[C@@H](O)[C@H](n2cnc3c(N)ncnc32)O1 (some centres unmarked)
4.00 to 4.82

State, in one line, measured pIC50 of COC(=O)C(C)(C)NP(=O)(OC[C@@H]1C[C@@H](O)[C@H](n2cnc3c(N)ncnc32)O1)Oc1cccc2ccccc12 (some centres unmarked)
4.00 to 4.82

Name the recorded pIC50 of the item Nc1ncnc2c1ncn2[C@@H]1O[C@H](COP(=O)(NCC(=O)OCc2ccccc2)Oc2ccccc2)C[C@H]1O (some centres unmarked) in your answer.
4.00 to 4.82

* * *

Please go through the items and note down their pIC50.
# Test system: RL
# Measurement protocol: Solid tumour and haematological malignancy assay (CellTiterGlo)
# Assay type: cell-based
# Experimental context: Homo sapiens, 72 hr, read-out: IC50 (absolute IC50)
pIC50: −log10 of the molar value.

Consider the compound Nc1ncnc2c1ncn2[C@@H]1O[C@H](CO)C[C@H]1O [Cordycepin, 3′-deoxyadenosine, reference compound] and give its recorded pIC50.
< 4.00

Name the recorded pIC50 of the item COc1nc(N)c2ncn([C@@H]3O[C@H](CO)C[C@H]3O)c2n1 [2-OMe-Cordycepin, 3′-deoxy-2-methoxyadenosine, reference compound] in your answer.
< 4.00

* * *

# System: HepG2
# Measurement protocol: Solid tumour and haematological malignancy assay (CellTiterGlo)
# Type: cell-based
# Experimental context: Homo sapiens, HepG2, 72 h, read-out: MI %
Quantity: Emax (%)
Field format: number, assumed %, no unit text.

Using the record for CCCCCOC(=O)[C@H](CC(C)C)NP(=O)(OC[C@@H]1C[C@H](O)[C@H](n2cnc3c(N)nc(F)nc32)O1)Oc1cccc2ccccc12 (stereo partly drawn) [Compound Q] , state its measured Emax.
94

Look up and report measured Emax for this entry: CC(NP(=O)(OC[C@@H]1C[C@@H](O)[C@H](n2cnc3c(N)nc(Cl)nc32)O1)Oc1cccc2ccccc12)C(=O)OCc1ccccc1 (stereo in doubt) [S]
84.6

Tell me its Emax given C[C@H](NP(=O)(OC[C@@H]1CC(O)[C@H](n2cnc3c(N)ncnc32)O1)Oc1ccccc1)C(=O)OCc1ccccc1 (stereo partly drawn) [Compound A] as the entry.
75

* * *

# Test system: HL-60
# Measurement protocol: Solid tumour and haematological malignancy assay (CellTiterGlo)
# Format: cell-based
# Experimental context: Homo sapiens, HL-60, 72 h, read-out: IC50 (absolute IC50)
pIC50: −log10 of the molar value.
Give measured pIC50 for each item. Keep answers brief.

State, in one line, measured pIC50 of CCCCCOC(=O)[C@H](CC(C)C)NP(=O)(OC[C@@H]1C[C@H](O)[C@H](n2cnc3c(N)nc(F)nc32)O1)Oc1cccc2ccccc12 (stereo partly shown)
5.30 to 7.00

Supply measured pIC50 of Nc1nc(F)nc2c1ncn2[C@@H]1O[C@H](CO)C[C@H]1O [2-F-Cordycepin, 3′deoxy-2-fluoroadenosine, reference compound] in your reply.
4.82 to 5.30

# return recorded pIC50 for entry CCCCCCOC(=O)[C@H](C)NP(=O)(OC[C@@H]1C[C@@H](O)[C@H](n2cnc3c(N)nc(F)nc32)O1)Oc1ccccc1 (stereo partly shown)
5.30 to 7.00

Query pIC50 for C[C@H](NP(=O)(OC[C@@H]1C[C@@H](O)[C@H](n2cnc3c(N)nc(F)nc32)O1)Oc1ccccc1)C(=O)OCc1ccccc1 (mixture of isomers)
5.30 to 7.00

Given C[C@H](NP(=O)(OC[C@@H]1C[C@H](O)[C@H](n2cnc3c(N)nc(F)nc32)O1)Oc1cccc2ccccc12)C(=O)OCc1ccccc1 (stereo partly shown) , respond with its pIC50.
5.30 to 7.00

Please give measured pIC50 of the following entry: Nc1ncnc2c1ncn2[C@@H]1O[C@H](COP(=O)(NCC(=O)OCc2ccccc2)Oc2ccccc2)C[C@H]1O (stereo partly shown)
4.82 to 5.30

Answer with the recorded pIC50 of COC(=O)C(C)(C)NP(=O)(OC[C@@H]1C[C@@H](O)[C@H](n2cnc3c(N)ncnc32)O1)Oc1cccc2ccccc12 (stereo partly shown) only.
4.82 to 5.30

* * *

# Test system: HT29
# Measurement protocol: Solid tumour and haematological malignancy assay (CellTiterGlo)
# Type: cell-based
# Experimental context: Homo sapiens, HT-29, 72 h, read-out: EC50 (absolute EC50)
Quantity: EC50

Write down EC50 measured for item CC(NP(=O)(OC[C@@H]1C[C@@H](O)[C@H](n2cnc3c(N)nc(Cl)nc32)O1)Oc1cccc2ccccc12)C(=O)OCc1ccccc1 (stereo in doubt)
15 to 100 µM

* * *

# Tested on: HL-60 (TdT negative)
# Measurement protocol: ATP (ViaLight plus) cytotoxicity assay
# Assay type: cell-based, Human
# Experimental context: HL-60
Quantity: (FD) fold difference compared to Cordycepin = Cordycepin IC50/ProTide IC50

Compound	Measured value
C[C@H](NP(=O)(OC[C@@H]1CC(O)[C@H](n2cnc3c(N)ncnc32)O1)Oc1ccccc1)C(=O)OCc1ccccc1 (stereo partly shown)	(3)
CCOC(=O)CCc1ccccc1OP(=O)(N[C@@H](C)C(=O)OCc1ccccc1)OC[C@@H]1C[C@@H](O)[C@H](n2cnc3c(N)ncnc32)O1 (stereo partly shown)	(1)
C[C@H](NP(=O)(OC[C@@H]1C[C@@H](O)[C@H](n2cnc3c(N)ncnc32)O1)Oc1cccc2ccccc12)C(=O)OCc1ccccc1 (stereo partly shown)	(4)
COC(=O)C(C)(C)NP(=O)(OC[C@@H]1C[C@@H](O)[C@H](n2cnc3c(N)ncnc32)O1)Oc1cccc2ccccc12 (stereo partly shown)	(1)

* * *

# System: RPMI-8226
# Measurement protocol: Solid tumour and haematological malignancy assay (CellTiterGlo)
# Format: cell-based
# Experimental context: Homo sapiens; RPMI-8226, 72 hr; read-out: EC50 (absolute EC50)
Quantity: EC50

Indicate its recorded EC50; the compound in question is Nc1nc(Cl)nc2c1ncn2[C@@H]1O[C@H](CO)C[C@H]1O [2-Cl-cordycepin, 3′-deoxy-2-chloroadenosine, reference compound]
> 100 µM
